Data provenance is the supplement of paper PMC9170038.

system: MS2 coat protein; experiment: apparent KD of MS2 coat protein; higher = weaker reporter binding; conditions: Eterna round: R107; input ligand: none
apparent KD of MS2 coat protein below 0.02 µM gives Not satisfied; apparent KD of MS2 coat protein at or above it gives Satisfied.

1. CACGCACGAUCGGCCGCCACUCGUGUAGCUUACAUGAGGAUCACCCAUGUAUGUUCAUUCAUAUAGAGGACCGGGAUCGUGCGUG [#05 Same State - Tryptophan B]; Not satisfied
2. UAACAUGAGGAUCACCCAUGUUUGAAGGAACGAGGACCGGUACGGCCGCCACUCGACGAGUGGAUGAGAAGUGGGCUUGUGUGCU [Same State Trp A GF9]; Not satisfied
3. GACCGGUUAUAGCGCGAUUGUCUUGUGGAAGGAGCGCAGAGGGCUGCAGGUAGGUCGCCACAUGAGGAUCACCCAUGUCAGGAAA [Biraesge]; Not satisfied
4. AGUAGACACGCGGCCGCCACUUGAGGAUCACCCAAGUGGUGUGUACUUGAAAACAAGUGCACAUCAAGGACCGGGCGUGUCUACA [Omei Tryp B SS D v3]; Not satisfied
5. CAUAUAUAUGGAAGGAGCGCGAUUACAUAACAUGAGGAUCACCCAUGUAAGAAAUUAUUCAUGCAGGUAGGUCGCCAUAUAUAUG [Same State Arginine B GF6]; Satisfied

###

tested on: MS2 coat protein; assay: apparent KD of MS2 coat protein; designed switch direction (-1 OFF switch, 1 ON switch): -1; higher = weaker reporter binding; conditions: input ligand: none
READOUT TYPE: apparent KD of MS2 coat protein (nM)

1) GGUGUGCUAGGAUAUGCUUUGGGCUCGCUUACCUUCGUUUUACUUGAGGAUCACCCAAGUAGAAGGUGCUUGCC [salish99_ex2_r4_039] (Eterna round: R97, puzzle: Exclusion 2); 12.4
2) GAAUGAGAGCAGGAUAUCUUAUAAAUGUAUGAAAGAGAAGGGCUCACAUGAGGAUCACCCAUGUGGUCCUAGAU [jl-ex6-4.76 jandersonlee mod] (Eterna round: R97, puzzle: Exclusion 6); 35.2
3) CUGAGUGGAGGAUAUACAUGAGGAUCACCCAUGUAAAGUAGCUUGCGUACAGGCAGAUGUAGAAGGUCAUUCGG [Mod of JL 12 - Jieux - Exclusion 3] (Eterna round: R97, puzzle: Exclusion 3); 10.3

###

system: MS2 coat protein; assay: apparent KD of MS2 coat protein; designed switch direction (-1 OFF switch, 1 ON switch): 1; higher = weaker reporter binding; details: input ligand: FMN 200 uM
READOUT TYPE: apparent KD of MS2 coat protein (nM)

1. UGGAAGAAUUAAGGAUAUCGAGUACAUAUGUUUAACAUGAGGAUCACCCAUGUGGGUUGCGGUAUCGAGAAGGUAAAUUACAAG [Mat - same State NG 2 - JL mod - D61] (Eterna round: R96, puzzle: Same State NG 2); 44.6
2. UGCUAGUGGGUAGGAUAUUUAGGAUAUGGGAAAGACUAAGUCUGUAGGUCACCUAACCCAGAAGGAGAGAAGGACCAUUCAGCU [pwkr ssNG2 2FMN + F9.27] (Eterna round: R96, puzzle: Same State NG 2); 30.3
3. GGAUCAUGACGAGGAUAUGGUACAUGAGGAUCACCCAUGUAUGUACCACGACGGAAACGUCGAAUCCAGAAGGCGUCAUGAUCG [Mat - Same State NG 2 - JL mod - D39] (Eterna round: R96, puzzle: Same State NG 2); 25.3
4. AUUUUUUAUGCAGGAUAUGAUUAACAUGAGGAUCACCCAUGUGGUGUUGUGAGUAAGGAGAGUGAUCAGAAGGGCAUUUUUUUU [JMF's solution 68] (Eterna round: R96, puzzle: Same State NG 2); 579
